experiment: qHTS assay to identify small molecule agonists of the farnesoid-X-receptor (FXR) signaling pathway - cell viability counter screen (AID 743218); conditions: FXR-bla HEK293T viability, CellTiter-Glo luminescence, 16 h; series mostly up to 62.6 µM; further: nearly all actives have a fitted effect of over 45% in size
Inconclusive results are not listed. Activity calls are given as the source filed them. The call rests on the fitted dose curve; in most records, active means well fitted cell-killing curve with a large enough effect in the repeat runs; inconclusive means weak or mixed curves, or effect the other way; inactive means no such curve, though single readings can be large or run the other way.
Result category, one only: t = active, f = inactive

Examples with answers:
CCCCCCCCCCCCCCCCCC[N+](C)(C)Cc1ccccc1
t
NNc1nc(-c2ccc(N)cc2)cs1
t
NC(=O)CC[C@@H]1NC(=O)[C@H](Cc2ccccc2)NC(=O)[C@H](Cc2ccc(O)cc2)NC(=O)CCSSC[C@@H](C(=O)N2CCC[C@H]2C(=O)N[C@@H](CCCN=C(N)N)C(=O)NCC(N)=O)NC(=O)[C@H](CC(N)=O)NC1=O
f

Next up:
Task: Tell me the assay call for [O-][n+]1ccccc1SSc1cccc[n+]1[O-] please.
Result: t

----------
test: qHTS assay to identify small molecule antagonists of the estrogen receptor alpha (ER-alpha) signaling pathway - cell viability counter screen (AID 743074); conditions: ERalpha-bla HEK293 viability, CellTiter-Glo luminescence, 18 h; series mostly up to 69.4 µM;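 further: HEK293 cells carrying ER-alpha-UAS-bla reporter stimulated with 17beta-estradiol; nearly all actives have a fitted effect of over 45% in size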
Inconclusive results are not listed. Calls of active or inactive are those of the source. Calls follow the shape of the full dose curve.
Field 'call' accepts Y (active), N (inactive)

N#CSc1ccc(N)c([N+](=O)[O-])c1
N
CCN1/C(=C/C=C/c2sc3ccccc3[n+]2CC)Sc2ccccc21
Y

Query compound follows.
Task: Per the assay record, what outcome was assigned to CC1=C(/C=C/C(C)=C/C=C/C(C)=C/C=O)C(C)(C)CCC1 ?
Result: Y

----------
experiment: qHTS RealTime-Glo MT Cell Viability Assay in HepG2 cells - 8 hour (AID 1224873); conditions: RealTime-Glo luminescence; series mostly up to 76.8 µM; further: nearly all actives have a fitted effect of over 55% in size; further: potency means the concentration at half of the fitted maximal effect
Inconclusive results are not listed. Active and inactive are the calls of the source. Calls follow the shape of the dose curve; as a rule, active = well fitted cell-killing curve with a large enough effect in the repeat runs; inconclusive = weak or mixed curves; inactive = flat fitted curve, though single readings scatter.
quantity-kind: Potency

CCCCCCCC(=O)[O-].CCCCCCCC(=O)[O-].[Zn+2]
inactive
CCCCCCCC[N+](CCCCCCCC)(CCCCCCCC)CCCCCCCC
24.5 µM (active)
C/C(=C(/OCCOc1ccc(Cl)cc1)c1ccc(Cl)cc1Cl)n1ccnc1
inactive

----------
assay: qHTS RealTime-Glo MT Cell Viability Assay in HepG2 cells - 32 hour (AID 1224877); settings: RealTime-Glo luminescence; series mostly up to 76.8 µM; further: nearly all actives have a fitted effect of over 55% in size
Results filed as inconclusive are left out. Active and inactive are the calls of the source. Calls follow the shape of the dose curve; as a rule, active = well fitted cell-killing curve with a large enough effect in the repeat runs; inconclusive = weak or mixed curves; inactive = flat fitted curve, though single readings scatter.
API: response.call in Yes = active, No = inactive

Oc1ccc2c(c1)-c1ccccc1C2
No
CCOC(=O)O[C@H](C)OC(=O)c1ccc2c(c1)cc(C(=O)NC1CCN(C(C)C)CC1)n2Cc1cc(-c2ccc(Cl)s2)on1
Yes
CN(C)c1ccc(SC#N)cc1
No
CCCCCOc1ccccc1/C(=C\SC)n1ccnc1
No
Nc1ccccc1O
No
ON=C1CCCC1
No
Cc1c(C)c2c(c(C)c1O)CCC(C)(COc1ccc(CC3SC(=O)NC3=O)cc1)O2 (stereo not drawn)
No
C=CC(=O)OCC(CO)(COCC(COC(=O)C=C)(COC(=O)C=C)COC(=O)C=C)COC(=O)C=C
Yes
C/C(=C(/OCCOc1ccc(Cl)cc1)c1ccc(Cl)cc1Cl)n1ccnc1
No
Clc1ccc2n[nH]nc2c1
No

Task: Assay outcome for CCCCCCCCCCCC[N+](C)(C)CCCCCCCCCCCC : what was it?
Result: Yes
